# run_description: MRT in cynomolgus monkey at 0.3 mg/kg, po
# Type: ADME, organism-based, Macaca fascicularis
# conditions_used: in vivo
measurement_label: MRT (h)
Give the quantity in h, number only.

Answered examples (3):
{"structure_smiles": "CCONC(=O)c1ccc(Cl)cc1-c1ccc([C@@H](C)N(CC2CC2)c2nc(C(=O)NS(=O)(=O)C3CC3)c(C3CC3)s2)cc1", "measurement_label": "MRT", "numeric_readout": 5.3}
{"structure_smiles": "Cc1ccc(-c2nc(=O)o[nH]2)c(-c2ccc([C@@H](C)N(CC3CC3)c3nc(C(=O)NS(=O)(=O)C4CC4)c(C4CC4)s3)cc2)c1", "measurement_label": "MRT", "numeric_readout": 5.4}
{"structure_smiles": "CONC(=O)c1ccc(Cl)cc1-c1ccc([C@@H](C)N(CC2CC2)c2nc(C(=O)NS(=O)(=O)C3CC3)c(C3CC3)s2)cc1", "measurement_label": "MRT", "numeric_readout": 5.3}

Entry CNC(=O)c1ccc(Cl)cc1-c1ccc([C@@H](C)N(CC2CC2)c2nc(C(=O)NS(=O)(=O)C3CC3)c(C3CC3)s2)cc1 has what MRT? 6.4

Entry C[C@H](c1ccc(-c2cc(Cl)ccc2C(N)=O)cc1)N(CC1CC1)c1nc(C(=O)NS(=O)(=O)C2CC2)c(C2CC2)s1 has what MRT? 3.4

====

# run_description: Tmax in cynomolgus monkey at 0.3 mg/kg, po
# Assay type: ADME, organism-based, Macaca fascicularis
# conditions_used: in vivo
measurement_label: Tmax (h)
Give the quantity in h, number only.

Answered examples (2):
{"structure_smiles": "CNC(=O)c1ccc(Cl)cc1-c1ccc([C@@H](C)N(CC2CC2)c2nc(C(=O)NS(=O)(=O)C3CC3)c(C3CC3)s2)cc1", "numeric_readout": 4}
{"structure_smiles": "CONC(=O)c1ccc(Cl)cc1-c1ccc([C@@H](C)N(CC2CC2)c2nc(C(=O)NS(=O)(=O)C3CC3)c(C3CC3)s2)cc1", "numeric_readout": 2.7}

Entry CCONC(=O)c1ccc(Cl)cc1-c1ccc([C@@H](C)N(CC2CC2)c2nc(C(=O)NS(=O)(=O)C3CC3)c(C3CC3)s2)cc1 has what Tmax? 4

Entry Cc1ccc(-c2nc(=O)o[nH]2)c(-c2ccc([C@@H](C)N(CC3CC3)c3nc(C(=O)NS(=O)(=O)C4CC4)c(C4CC4)s3)cc2)c1 has what Tmax? 3.3

Entry C[C@H](c1ccc(-c2cc(Cl)ccc2C(N)=O)cc1)N(CC1CC1)c1nc(C(=O)NS(=O)(=O)C2CC2)c(C2CC2)s1 has what Tmax? 1.3

====

# run_description: Tmax in cynomolgus monkey at 1 mg/kg, po
# Format: ADME, organism-based, Macaca fascicularis
# conditions_used: in vivo
measurement_label: Tmax (h)
Give the quantity in h, number only.

Answered examples (2):
{"structure_smiles": "CNC(=O)c1ccc(C)cc1-c1ccc([C@@H](C)N(CC2CC2)c2nc(C(=O)NS(=O)(=O)C3CC3)c(C3CC3)s2)cc1", "numeric_readout": 4}
{"structure_smiles": "Cc1ccc(-c2nc(=O)s[nH]2)c(-c2ccc([C@@H](C)N(CC3CC3)c3nc(C(=O)NS(=O)(=O)C4CC4)c(C4CC4)s3)cc2)c1", "numeric_readout": 4}

Proceed to the following item.
Entry CONC(=O)c1ccc(C)cc1-c1ccc([C@@H](C)N(CC2CC2)c2nc(C(=O)NS(=O)(=O)C3CC3)c(C3CC3)s2)cc1 has what Tmax? 3.3
